For each of the molecules below, state its Ki.
Supply the numeric figure in µM, leaving out any unit text.

input: Please respond with reported Ki (system Peroxisome proliferator-activated receptor gamma (Homo sapiens)) for O[C@@H]1[C@H](O)CS[C@H]1Cn1cnc2c(NCc3cccc(F)c3)nc(Cl)nc21 .
output: 3.89

input: For Peroxisome proliferator-activated receptor gamma (Homo sapiens), give the measured Ki of the entry CC#Cc1nc(NCc2cccc(Br)c2)c2ncn(C[C@@H]3SC[C@@H](O)[C@H]3O)c2n1
output: 7.04

input: State Ki on Peroxisome proliferator-activated receptor gamma (Homo sapiens). Entry: CC#Cc1nc(NCc2cccc(I)c2)c2ncn(C[C@@H]3SC[C@@H](O)[C@H]3O)c2n1
Sequence (P37231 whole entry): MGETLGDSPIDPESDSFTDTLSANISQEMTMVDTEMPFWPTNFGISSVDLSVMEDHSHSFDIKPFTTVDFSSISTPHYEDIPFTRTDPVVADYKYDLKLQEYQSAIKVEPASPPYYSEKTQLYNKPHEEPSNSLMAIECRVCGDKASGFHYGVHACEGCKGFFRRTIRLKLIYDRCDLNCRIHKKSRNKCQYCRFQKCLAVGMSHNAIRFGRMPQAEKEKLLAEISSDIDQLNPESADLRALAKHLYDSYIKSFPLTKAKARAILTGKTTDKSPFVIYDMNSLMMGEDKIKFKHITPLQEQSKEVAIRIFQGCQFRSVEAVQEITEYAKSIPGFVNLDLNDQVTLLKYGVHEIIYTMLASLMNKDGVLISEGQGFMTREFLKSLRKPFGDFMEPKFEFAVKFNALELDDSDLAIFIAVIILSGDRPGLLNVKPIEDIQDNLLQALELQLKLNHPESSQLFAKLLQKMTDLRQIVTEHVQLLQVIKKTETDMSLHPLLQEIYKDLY
output: 7.3

input: Report Ki from Peroxisome proliferator-activated receptor gamma (Homo sapiens) testing of O[C@@H]1[C@H](O)CO[C@H]1Cn1cnc2c(NCc3cccc(Cl)c3)nc(Cl)nc21
output: 7.66

input: Please report the measured Ki for O[C@@H]1[C@H](O)CS[C@H]1Cn1cnc2c(NCc3cccc(Br)c3)nc(Cl)nc21 tested on Peroxisome proliferator-activated receptor gamma (Homo sapiens).
output: 4.07

input: Quote Ki with test system Peroxisome proliferator-activated receptor gamma (Homo sapiens) for CC#Cc1nc(NCc2cccc(F)c2)c2ncn(C[C@@H]3SC[C@@H](O)[C@H]3O)c2n1
output: 7.66

input: Write down the reported Ki (system: Peroxisome proliferator-activated receptor gamma (Homo sapiens)) of O[C@@H]1[C@H](O)CO[C@H]1Cn1cnc2c(NCc3cccc(Br)c3)nc(Cl)nc21
output: 9.55

----------
molecular target: Peroxisome proliferator-activated receptor delta (Homo sapiens)
Sequence (Q03181 whole entry): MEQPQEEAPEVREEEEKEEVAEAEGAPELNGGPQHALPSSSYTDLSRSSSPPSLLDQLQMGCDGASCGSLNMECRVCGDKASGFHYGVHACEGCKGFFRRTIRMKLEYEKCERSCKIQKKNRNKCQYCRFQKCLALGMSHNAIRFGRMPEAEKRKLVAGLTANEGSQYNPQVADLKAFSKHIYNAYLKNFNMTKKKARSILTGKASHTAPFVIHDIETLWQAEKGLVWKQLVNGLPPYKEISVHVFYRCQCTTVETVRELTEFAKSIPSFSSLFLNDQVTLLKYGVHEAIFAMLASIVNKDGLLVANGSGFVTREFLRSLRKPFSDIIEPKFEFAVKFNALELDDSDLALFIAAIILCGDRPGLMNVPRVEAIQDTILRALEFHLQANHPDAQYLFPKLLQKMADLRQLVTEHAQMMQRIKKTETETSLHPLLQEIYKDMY
Measured Property: pKi
pKi here is simply -log10 of the concentration when that concentration is written in mol/L.

input: Enter pKi (test system Peroxisome proliferator-activated receptor delta (Homo sapiens)) for O[C@@H]1[C@H](O)CS[C@H]1Cn1cnc2c(NCc3cccc(F)c3)nc(Cl)nc21
output: 5.72

input: Report pKi on Peroxisome proliferator-activated receptor delta (Homo sapiens) for this entry: O[C@@H]1[C@H](O)CS[C@H]1Cn1cnc2c(NCc3cccc(Br)c3)nc(Cl)nc21
output: 6.23

input: State the measured pKi (Peroxisome proliferator-activated receptor delta (Homo sapiens)) of O[C@@H]1[C@H](O)CS[C@H]1n1cnc2c(NCc3cccc(I)c3)nc(Cl)nc21
output: 7.97

input: Give pKi for O[C@@H]1[C@H](O)CO[C@H]1Cn1cnc2c(NCc3cccc(Cl)c3)nc(Cl)nc21 tested on Peroxisome proliferator-activated receptor delta (Homo sapiens).
output: 6.30

input: Fill in: pKi on Peroxisome proliferator-activated receptor delta (Homo sapiens), entry O[C@@H]1[C@H](O)CO[C@H]1Cn1cnc2c(NCc3cccc(Br)c3)nc(Cl)nc21
output: 5.84
